Just for reference, patent US11986471B2 is where these values come from.

# tested on: PRMT5 (Homo sapiens, UniProt O14744)
# Construct: purchased Viva (custom protein)
# Sequence (O14744 whole entry): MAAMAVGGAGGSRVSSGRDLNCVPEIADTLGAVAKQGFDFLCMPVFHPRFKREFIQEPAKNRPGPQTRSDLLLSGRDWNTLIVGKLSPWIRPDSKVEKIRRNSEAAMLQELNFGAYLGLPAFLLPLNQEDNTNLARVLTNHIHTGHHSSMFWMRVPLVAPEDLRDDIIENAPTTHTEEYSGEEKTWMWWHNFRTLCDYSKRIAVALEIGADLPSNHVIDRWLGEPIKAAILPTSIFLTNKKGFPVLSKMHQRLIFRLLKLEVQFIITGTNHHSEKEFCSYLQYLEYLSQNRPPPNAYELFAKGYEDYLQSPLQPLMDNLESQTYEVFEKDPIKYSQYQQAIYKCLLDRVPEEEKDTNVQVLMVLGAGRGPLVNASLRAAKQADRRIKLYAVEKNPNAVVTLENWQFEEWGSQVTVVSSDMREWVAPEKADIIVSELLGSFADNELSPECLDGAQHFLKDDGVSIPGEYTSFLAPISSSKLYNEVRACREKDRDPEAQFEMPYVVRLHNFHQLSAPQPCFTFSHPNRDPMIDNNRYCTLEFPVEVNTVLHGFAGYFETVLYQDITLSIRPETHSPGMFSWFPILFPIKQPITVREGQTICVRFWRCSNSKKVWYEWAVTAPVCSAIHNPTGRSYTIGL
# Sequence (Q9BQA1 whole entry partner): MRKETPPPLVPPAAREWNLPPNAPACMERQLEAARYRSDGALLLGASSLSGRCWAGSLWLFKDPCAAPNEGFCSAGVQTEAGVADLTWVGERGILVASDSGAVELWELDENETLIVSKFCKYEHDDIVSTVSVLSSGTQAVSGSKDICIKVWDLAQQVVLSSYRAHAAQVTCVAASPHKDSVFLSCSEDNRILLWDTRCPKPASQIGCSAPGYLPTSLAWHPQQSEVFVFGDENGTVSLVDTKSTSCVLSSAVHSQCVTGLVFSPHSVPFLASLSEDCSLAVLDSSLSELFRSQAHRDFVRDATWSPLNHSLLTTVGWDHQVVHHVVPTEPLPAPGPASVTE
# procedure text: PRMT5 IC50 assay with no cofactor
# Format: biochemical
# Description: Table 1a indicates IC50 values (μM) against PRMT5 for exemplary compounds in the presence of SAM as cofactor, with no cofactor and with MTA as cofactor, respectively (columns 3-5). […] The Ki values can be calculated from the IC50 values as described in the Examples section. As detailed in the Examples section, for the assay performed in the presence of SAM, IC50=Ki×1.5 (Ki=IC50/1.5). For the assay performed in the presence of MTA, IC50=Ki×13.5 (Ki=IC50/13.5). […]
endpoint: IC50

State the recorded IC50 for this entry: "O=C(NC[C@H](O)CN1CCc2cc(OCc3cnco3)c(F)cc2C1)c1ccnc(NC2CCC2)c1"
≥ 5 µM

State the recorded IC50 for this entry: "COc1cc(C(=O)NC[C@H](O)CN2CCc3cc(OCc4ocnc4C)ccc3C2)cc(NC2CCN(C(C)=O)CC2)n1"
0.5 to 5 µM

State the recorded IC50 for this entry: "O=C(NC[C@H](O)CN1CCc2c(ccc(OCc3cnco3)c2Cl)C1)c1ccc(OC2CCOCC2)cc1"
≥ 5 µM

State the recorded IC50 for this entry: "Cc1c(OCc2ccnn2C)ccc2c1CCN(C[C@@H](O)CNC(=O)c1cc(NC3CCC3)ccn1)C2"
≥ 5 µM

State the recorded IC50 for this entry: "CC(=O)N1CCC(Nc2cc(C(=O)NC[C@H](O)CN3CCc4cc(OCc5ocnc5C)ccc4C3)ccn2)CC1"
0.5 to 5 µM

State the recorded IC50 for this entry: "CC(=O)N1CCC(Nc2cc(C(=O)NC[C@H](O)CN3CCc4nc(OCc5ocnc5C)ccc4C3)ncn2)CC1"
≥ 5 µM

State the recorded IC50 for this entry: "Cc1c(OCc2cnco2)ccc2c1CCN(C[C@@H](O)CNC(=O)c1ccnc(NC3CCN(C(=O)C4CC4)CC3)c1)C2"
0.5 to 5 µM

State the recorded IC50 for this entry: "CC(C)C(=O)N1CCN(c2cc(C(=O)NC[C@H](O)CN3CCc4c(ccc(OCc5cnco5)c4Cl)C3)cc(NC3CCC3)n2)CC1"
0.5 to 5 µM

State the recorded IC50 for this entry: "Cc1ncoc1COc1ccc2c(c1)CCN(C[C@@H](O)CNC(=O)c1cc(NC3CCC3)ncc1Cl)C2"
≥ 5 µM

State the recorded IC50 for this entry: "CCCN(C)c1cc(C(=O)NC[C@H](O)CN2CCc3c(ccc(OCc4cnco4)c3Cl)C2)cc(NC2CCC2)n1"
≥ 5 µM

###

# Test system: HAP1 MTAP-intact
# procedure text: SDMA in-cell western assay, HAP1 MTAP-intact cell line
# Assay type: cell-based
# assay conditions: Homo sapiens
pIC50: −log10 of the molar value.
pIC50 for assorted compounds

Worked cases, answers included:
CCC(=O)N1CCC(Nc2cc(C(=O)NC[C@H](O)CN3CCc4c(ccc(OCc5cnco5)c4C)C3)ccn2)CC1 [Compound 496] :: ≤ 5.00
CC(=O)N1CCN(c2cc(C(=O)NC[C@H](O)CN3CCc4cc(OCc5ocnc5C)c(F)cc4C3)cc(NC3CCC3)n2)CC1 [Compound 615] :: 5.00 to 6.00

Find pIC50 (HAP1 MTAP-intact) for the entry Cc1ncoc1COc1ccc2c(c1)CCN(C[C@@H](O)CNC(=O)c1cc(NC3CCC3)ccn1)C2 [Compound 516]
> 6.00

Find pIC50 (HAP1 MTAP-intact) for the entry COCCN(C)c1cc(C(=O)NC[C@H](O)CN2CCc3cc(OCc4ocnc4C)ccc3C2)cc(NC2CCN(C(C)=O)CC2)n1 [Compound 582]
5.00 to 6.00

###

IC50 for assorted compounds
# System: HAP1 MTAP-intact
# procedure text: SDMA in-cell western assay, HAP1 MTAP-intact cell line
# Type: cell-based
# assay conditions: Homo sapiens
# From the text: Table 1a also indicates IC50 values in an MTAP-isogenic cell line pair for exemplary compounds in an SDMA in-cell western assay (columns 7-8). HAP1 MTAP-intact is a cell line in which endogenous levels of MTAP are expressed, and HAP1 MTAP-deleted is an MTAP-null cell line. […] Compounds with a ratio in the SDMA in-cell western assay of equal to or greater than 3 fold are considered MTAP-selective.

Worked cases, answers included:
O=C(NC[C@H](O)CN1CCc2cc(OCc3cnco3)ccc2C1)c1cc(NC2CCC2)nc(N2CCNCC2)c1 :: 1000 to 10000 nM
CCC(=O)N1CCN(c2cc(C(=O)NC[C@H](O)CN3CCc4c(ccc(OCc5ocnc5C)c4C)C3)cc(NC3CCC3)n2)CC1 :: ≥ 10000 nM

State the recorded IC50 for this entry: "Cc1ncoc1COc1ccc2c(c1)CCN(C[C@@H](O)CNC(=O)c1cc(NC3CCC3)nc(N3CCN(C(C)(C)C)CC3)c1)C2"
< 1000 nM

State the recorded IC50 for this entry: "Cc1ncoc1COc1ccc2c(c1)CCN(C[C@@H](O)CNC(=O)c1cc(NC3CCC3)nc(N3CCN(C(=O)C(C)C)CC3)c1)C2"
< 1000 nM

###

# Test system: HAP1 MTAP-intact
# procedure text: SDMA in-cell western assay, HAP1 MTAP-intact cell line
# Format: cell-based
# assay conditions: Homo sapiens
IC50 for assorted compounds

Worked cases, answers included:
Cc1ncoc1COc1ccc2c(c1C)CCN(C[C@@H](O)CNC(=O)c1cccc(NC3COC3)c1)C2 :: ≥ 10 µM
Cc1ncoc1COc1ccc2c(c1C)CCN(C[C@@H](O)CNC(=O)c1ccnc(NC3CCCC3)c1)C2 :: ≥ 10 µM
O=C(NC[C@H](O)CN1CCc2cc(OCc3cnco3)ccc2C1)c1cc(NC2CCC2)ccn1 :: 1 to 10 µM
CC(=O)N1CC(Nc2cc(C(=O)NC[C@H](O)CN3CCc4cc(OCc5cnco5)ccc4C3)nc(C(C)C)n2)C1 :: < 1 µM
Cc1c(OCc2cnco2)ccc2c1CCN(C[C@@H](O)CNC(=O)c1cc(NC3CCN(C(=O)C(C)C)CC3)ncn1)C2 :: ≥ 10 µM

Find IC50 (HAP1 MTAP-intact) for the entry "COCCN(C)c1cc(C(=O)NC[C@H](O)CN2CCc3c(ccc(OCc4cnco4)c3Cl)C2)cc(NC2CCC2)n1"
≥ 10 µM

Find IC50 (HAP1 MTAP-intact) for the entry "CC(=O)N1CC(Nc2cc(C(=O)NC[C@H](O)CN3CCc4cc(OCc5ocnc5C)ccc4C3)nc(C(C)(C)C)n2)C1"
1 to 10 µM

Find IC50 (HAP1 MTAP-intact) for the entry "CC(=O)N1CCC(Nc2cc(C(=O)NC[C@H](O)CN3CCc4c(ccc(OCc5ccnn5C)c4Cl)C3)ncn2)CC1"
≥ 10 µM

Find IC50 (HAP1 MTAP-intact) for the entry "Cc1c(OCc2cnco2)ccc2c1CCN(C[C@@H](O)CNC(=O)c1cc(NC3CCN(C(=O)C4CCC4)CC3)ncn1)C2"
≥ 10 µM

Find IC50 (HAP1 MTAP-intact) for the entry "O=C(NC[C@H](O)CN1CCc2cc(OCc3cnco3)c(Cl)cc2C1)c1ccnc(NC2CCC2)c1"
≥ 10 µM

Find IC50 (HAP1 MTAP-intact) for the entry "CN1CCN(c2cc(C(=O)NC[C@H](O)CN3CCc4c(ccc(OCc5cnco5)c4Cl)C3)cc(NC3CCC3)n2)CC1"
≥ 10 µM

Find IC50 (HAP1 MTAP-intact) for the entry "O=C(NC[C@H](O)CN1CCc2cc(OCc3cnco3)ccc2C1)c1ccc2c(c1)CCN(C(=O)c1ccc(Br)cc1)C2"
≥ 10 µM

###

# tested on: PRMT5 (Homo sapiens, UniProt O14744)
# Construct: purchased Viva (custom protein)
# procedure text: PRMT5 IC50 assay with no cofactor
# Format: biochemical
IC50 for assorted compounds

Worked cases, answers included:
COc1cnc(NC2CCN(C(C)=O)CC2)cc1C(=O)NC[C@H](O)CN1CCc2cc(OCc3ocnc3C)ccc2C1 [Compound 597] :: 0.05 to 0.5 µM
Cc1ncoc1COc1ccc2c(c1)CCN(C[C@@H](O)CNC(=O)c1ccc3c(c1)CCN(C(=O)c1ccc(Br)cc1)C3)C2 [Compound 493] :: 0.5 to 5 µM
Cc1ncoc1COc1ccc2c(n1)CCN(C[C@@H](O)CNC(=O)c1ccnc(NC3CCC3)c1)C2 [Compound 467] :: ≥ 5 µM
CC(=O)N1CCC(Nc2cccc(C(=O)NC[C@H](O)CN3CCc4c(ccc(OCc5cnco5)c4C)C3)c2)CC1 [Compound 529] :: 0.5 to 5 µM
Cc1ncoc1COc1ccc2c(c1)CCN(C[C@@H](O)CNC(=O)c1cc(NC3CCC3)ncc1F)C2 [Compound 614] :: 0.5 to 5 µM

State the recorded IC50 for this entry: COCC(=O)N1CC(Nc2cc(C(=O)NC[C@H](O)CN3CCc4c(ccc(OCc5cnco5)c4C)C3)ncn2)C1 [Compound 518]
≥ 5 µM

State the recorded IC50 for this entry: CC(=O)N1CCC(Nc2cc(C(=O)NC[C@H](O)CN3CCc4c(C)c(OCc5ocnc5C)cc(F)c4C3)ncn2)CC1 [Compound 618]
0.5 to 5 µM
